experimental-details: Stability in human plasma
Assay type: in vitro ADME
condition-notes: 80% human plasma, 20% 0.02 M phosphate buffer pH 7.4, 37 °C
Where a SMILES comes first, the peptide text is derived from it. [ ]: non-standard residue; d: D form. dDopa = N[C@H](Cc1ccc(O)c(O)c1)C(=O)O; dSeMet = C[Se]CC[C@@H](N)C(=O)O
For each of the compounds below, state its Kobs.

input: Please list Kobs recorded for the compound COC(=O)[C@@H](Cc1ccc(OC(C)=O)c(OC(C)=O)c1)NC(=O)[C@@H](CSSC[C@@H](NC(C)=O)C(=O)N[C@H](Cc1ccc(OC(C)=O)c(OC(C)=O)c1)C(=O)OC)NC(C)=O [SP3]
output: 0.014 (±0.003) min^−1

input: Please list Kobs recorded for the compound COC(=O)[C@@H](Cc1ccc(OC(C)=O)c(OC(C)=O)c1)NC(=O)CCSSCCC(=O)N[C@H](Cc1ccc(OC(C)=O)c(OC(C)=O)c1)C(=O)OC [SP2]
output: 0.010 (±0.001) min^−1

input: Please list Kobs recorded for the compound COC(=O)[C@@H](Cc1ccc(OC(C)=O)c(OC(C)=O)c1)NC(=O)[C@@H](CC[Se]C)NC(C)=O [SP6]
output: 0.004 (±0.0001) min^−1

input: Please list Kobs recorded for the compound COC(=O)[C@@H](Cc1ccc(O)c(O)c1)NC(=O)[C@@H](CC[Se]C)NC(C)=O [SP5] (Ac-[dSeMet]-[dDopa]-OMe)
output: 0.005 (±0.0001) min^−1

input: Please list Kobs recorded for the compound COC(=O)[C@@H](Cc1ccc(OC(C)=O)c(OC(C)=O)c1)NC(=O)CSSCC(=O)N[C@H](Cc1ccc(OC(C)=O)c(OC(C)=O)c1)C(=O)OC [SP1]
output: 0.024 (±0.001) min^−1

* * *

experimental-details: Octanol/water partition coefficient (logP o/w)
Type: physicochemical
condition-notes: n-octanol / phosphate buffer pH 7.4, HPLC
Where a SMILES comes first, the peptide text is derived from it. [ ]: non-standard residue; d: D form. dDopa = N[C@H](Cc1ccc(O)c(O)c1)C(=O)O; dSeMet = C[Se]CC[C@@H](N)C(=O)O
For each of the compounds below, state its logP.
The response must contain the number and no unit.

input: Please list logP recorded for the compound N[C@@H](Cc1ccc(O)c(O)c1)C(=O)O [LD, reference compound]
output: -2.46

input: Please list logP recorded for the compound COC(=O)[C@@H](Cc1ccc(OC(C)=O)c(OC(C)=O)c1)NC(=O)C[Se][Se]CC(=O)N[C@H](Cc1ccc(OC(C)=O)c(OC(C)=O)c1)C(=O)OC
output: -1.17

input: Please list logP recorded for the compound COC(=O)[C@@H](Cc1ccc(OC(C)=O)c(OC(C)=O)c1)NC(=O)[C@@H](CC[Se]C)NC(C)=O
output: 1.44

input: Please list logP recorded for the compound COC(=O)[C@@H](Cc1ccc(OC(C)=O)c(OC(C)=O)c1)NC(=O)[C@@H](CSSC[C@@H](NC(C)=O)C(=O)N[C@H](Cc1ccc(OC(C)=O)c(OC(C)=O)c1)C(=O)OC)NC(C)=O
output: 1.07

input: Please list logP recorded for the compound COC(=O)[C@@H](Cc1ccc(OC(C)=O)c(OC(C)=O)c1)NC(=O)CCSSCCC(=O)N[C@H](Cc1ccc(OC(C)=O)c(OC(C)=O)c1)C(=O)OC
output: 0.828

input: Please list logP recorded for the compound COC(=O)[C@@H](Cc1ccc(OC(C)=O)c(OC(C)=O)c1)NC(=O)CSSCC(=O)N[C@H](Cc1ccc(OC(C)=O)c(OC(C)=O)c1)C(=O)OC
output: -0.163

input: Please list logP recorded for the compound COC(=O)[C@@H](Cc1ccc(O)c(O)c1)NC(=O)[C@@H](CC[Se]C)NC(C)=O [SP5] (Ac-[dSeMet]-[dDopa]-OMe)
output: 0.51

* * *

experimental-details: BBB-PAMPA (parallel artificial membrane permeability)
Type: in vitro ADME, porcine
condition-notes: pig; PAMPA-BBB, 16 h at room temperature, pH 7.4; read-out: Pe
Where a SMILES comes first, the peptide text is derived from it. [ ]: non-standard residue; d: D form. dDopa = N[C@H](Cc1ccc(O)c(O)c1)C(=O)O; dSeMet = C[Se]CC[C@@H](N)C(=O)O
Binary call on Papp at 16 h: Condition met from 2 ×10⁻⁶ cm/s upward, Condition not met beneath that.

input: Has COC(=O)[C@@H](Cc1ccc(OC(C)=O)c(OC(C)=O)c1)NC(=O)CCSSCCC(=O)N[C@H](Cc1ccc(OC(C)=O)c(OC(C)=O)c1)C(=O)OC [SP2] a recorded Papp at 16 h greater than or equal to 2 ×10⁻⁶ cm/s?
output: Condition not met

input: Has COC(=O)[C@@H](Cc1ccc(OC(C)=O)c(OC(C)=O)c1)NC(=O)CSSCC(=O)N[C@H](Cc1ccc(OC(C)=O)c(OC(C)=O)c1)C(=O)OC [SP1] a recorded Papp at 16 h greater than or equal to 2 ×10⁻⁶ cm/s?
output: Condition not met

input: Has COC(=O)[C@@H](Cc1ccc(O)c(O)c1)NC(=O)[C@@H](CC[Se]C)NC(C)=O [SP5] (Ac-[dSeMet]-[dDopa]-OMe) a recorded Papp at 16 h greater than or equal to 2 ×10⁻⁶ cm/s?
output: Condition met

input: Has COC(=O)[C@@H](Cc1ccc(OC(C)=O)c(OC(C)=O)c1)NC(=O)[C@@H](CC[Se]C)NC(C)=O [SP6] a recorded Papp at 16 h greater than or equal to 2 ×10⁻⁶ cm/s?
output: Condition met

input: Has N[C@@H](Cc1ccc(O)c(O)c1)C(=O)O [LD, reference compound] a recorded Papp at 16 h greater than or equal to 2 ×10⁻⁶ cm/s?
output: Condition not met

input: Has COC(=O)[C@@H](Cc1ccc(OC(C)=O)c(OC(C)=O)c1)NC(=O)C[Se][Se]CC(=O)N[C@H](Cc1ccc(OC(C)=O)c(OC(C)=O)c1)C(=O)OC [SP4] a recorded Papp at 16 h greater than or equal to 2 ×10⁻⁶ cm/s?
output: Condition not met

input: Has COC(=O)[C@@H](Cc1ccc(OC(C)=O)c(OC(C)=O)c1)NC(=O)[C@@H](CSSC[C@@H](NC(C)=O)C(=O)N[C@H](Cc1ccc(OC(C)=O)c(OC(C)=O)c1)C(=O)OC)NC(C)=O [SP3] a recorded Papp at 16 h greater than or equal to 2 ×10⁻⁶ cm/s?
output: Condition met

* * *

experimental-details: Stability in human plasma
Type: in vitro ADME
condition-notes: human, 80% human plasma with 20% 0.02 M phosphate buffer, pH 7.4, 80% human plasma, 20% 0.02 M phosphate buffer pH 7.4, 37 °C; read-out: t1/2
Where a SMILES comes first, the peptide text is derived from it. [ ]: non-standard residue; d: D form. dDopa = N[C@H](Cc1ccc(O)c(O)c1)C(=O)O; dSeMet = C[Se]CC[C@@H](N)C(=O)O
assay-metric: half-life at 1 mg/mL

input: Please list half-life at 1 mg/mL recorded for the compound COC(=O)[C@@H](Cc1ccc(OC(C)=O)c(OC(C)=O)c1)NC(=O)[C@@H](CSSC[C@@H](NC(C)=O)C(=O)N[C@H](Cc1ccc(OC(C)=O)c(OC(C)=O)c1)C(=O)OC)NC(C)=O
output: 0.837 h

input: Please list half-life at 1 mg/mL recorded for the compound COC(=O)[C@@H](Cc1ccc(OC(C)=O)c(OC(C)=O)c1)NC(=O)CCSSCCC(=O)N[C@H](Cc1ccc(OC(C)=O)c(OC(C)=O)c1)C(=O)OC
output: 1.1 h

input: Please list half-life at 1 mg/mL recorded for the compound COC(=O)[C@@H](Cc1ccc(OC(C)=O)c(OC(C)=O)c1)NC(=O)CSSCC(=O)N[C@H](Cc1ccc(OC(C)=O)c(OC(C)=O)c1)C(=O)OC
output: 0.48 h

input: Please list half-life at 1 mg/mL recorded for the compound COC(=O)[C@@H](Cc1ccc(O)c(O)c1)NC(=O)[C@@H](CC[Se]C)NC(C)=O [SP5] (Ac-[dSeMet]-[dDopa]-OMe)
output: 2.1 h

input: Please list half-life at 1 mg/mL recorded for the compound COC(=O)[C@@H](Cc1ccc(OC(C)=O)c(OC(C)=O)c1)NC(=O)[C@@H](CC[Se]C)NC(C)=O
output: 2.89 h
